Origin of values: ChEMBL document CHEMBL1123742

target: S-adenosylmethionine synthetase (MAT 1 and MAT 2) (Rattus norvegicus, UniProt P13444+P18298); assay: Inhibition constant of compound with kidney (M-2) form of rat methionine adenosyltransferase when ATP was used as variable substrate;Competitive type of inhibition; type: protein assay
Property: Ki; scope: individual compounds
RESULT TYPE: Ki (µM)

| COMPOUND | RESULT TYPE | NUMBER |
| --- | --- | --- |
| Nc1ncnc2c1ncn2C1O[C@H]([C@H](CNP(=O)(O)OP(=O)(O)OP(=O)(O)O)SCCC(N)C(=O)O)[C@@H](O)[C@H]1O (some centres undefined) | Ki | 0.36 |
| Nc1ncnc2c1ncn2[C@@H]1O[C@H](C(CP(=O)(O)OP(=O)(O)OP(=O)(O)O)SCCC(N)C(=O)O)[C@@H](O)[C@H]1O (single isomer, unassigned; isomer A) | Ki | 39 |
| Nc1ncnc2c1ncn2[C@@H]1O[C@H](C(CP(=O)(O)OP(=O)(O)OP(=O)(O)O)SCCC(N)C(=O)O)[C@@H](O)[C@H]1O (single isomer, unassigned; isomer B) | Ki | 180 |
| Nc1ncnc2c1ncn2C1O[C@H](CCNP(=O)(O)OP(=O)(O)OP(=O)(O)O)[C@@H](O)[C@H]1O (some centres undefined) | Ki | 14 |
